- Organism: Homo sapiens
- experiment notes: Inhibition of glycogen phosphorylase (unknown origin) assessed as inorganic phosphate production at 100 uM after 30 min
measure: inhibition (%)
Number only, in %; omit the unit.

Looking up C=C(CCCC(C)C)[C@H]1CCC2C3CC=C4C[C@@H](O)CC[C@]4(C)C3CC[C@@]21C (stereo partly drawn) , I found its inhibition recorded as 10.2

Looking up CCCCCCCCCCCCCCCCCCOCC(O)CO (stereo not drawn) , I found its inhibition recorded as 14.2

====

- tested system: Glucose-6-phosphatase catalytic subunit 1 (Homo sapiens)
- experiment notes: Inhibition of glucose-6-phosphatase (unknown origin) using glucose-6-phosphate as substrate assessed as inorganic phosphate production at 100 uM after 30 min
measure: inhibition (%)
Number only, in %; omit the unit.

Looking up CCCCCCCCCCCCCCCCO[C@H]1OC[C@H](O[C@H]2OC[C@H](O[C@H]3OC[C@H](O)[C@H](O)[C@H]3O)[C@H](O)[C@H]2O)[C@H](O)[C@H]1O , I found its inhibition recorded as 12

Looking up CCCCCCCCCCC/C=C/C[C@@H](O)[C@H](CO)NC(=O)[C@H](O)CCCCCCCCCCCCCCCCCC , I found its inhibition recorded as 10.2

Looking up CCCCC/C=C/CC/C=C/[C@@H](O)[C@H](CO)NC(=O)CCCCCCCCCCCCCCC , I found its inhibition recorded as 14.6

====

- Species: Homo sapiens
- experiment notes: Inhibition of glycogen phosphorylase (unknown origin) assessed as inorganic phosphate production at 100 uM after 30 min
measure: inhibition

As a guide, the following entries are already answered.
smiles string	observed value
CCCCCCCCCCC/C=C/C[C@@H](O)[C@H](CO)NC(=O)[C@H](O)CCCCCCCCCCCCCCCCCC	9.5%
CCCCC/C=C/CC/C=C/[C@@H](O)[C@H](CO)NC(=O)CCCCCCCCCCCCCCC	11.3%
CCCCCCCCCCCCCCCCO[C@H]1OC[C@H](O[C@H]2OC[C@H](O[C@H]3OC[C@H](O)[C@H](O)[C@H]3O)[C@H](O)[C@H]2O)[C@H](O)[C@H]1O	10.2%
CCCCCCCCCCCCCCCCCCCCCCO[C@H]1OC[C@H](O[C@H]2OC[C@H](O[C@H]3OC[C@H](O)[C@H](O)[C@H]3O)[C@H](OC(C)=O)[C@H]2O)[C@H](O)[C@H]1O	8.9%
CCCCCCCCCCCCCCCCCCC(=O)OCCCCCCCCCCCCCCCCC	17.2%

Looking up CCCCCCCCCCCCCCCCCOC(=O)CCCCCCCCCCCCCCCC , I found its inhibition recorded as 18.9%

====

- tested system: Glucose-6-phosphatase catalytic subunit 1 (Homo sapiens)
- Sequence (whole entry): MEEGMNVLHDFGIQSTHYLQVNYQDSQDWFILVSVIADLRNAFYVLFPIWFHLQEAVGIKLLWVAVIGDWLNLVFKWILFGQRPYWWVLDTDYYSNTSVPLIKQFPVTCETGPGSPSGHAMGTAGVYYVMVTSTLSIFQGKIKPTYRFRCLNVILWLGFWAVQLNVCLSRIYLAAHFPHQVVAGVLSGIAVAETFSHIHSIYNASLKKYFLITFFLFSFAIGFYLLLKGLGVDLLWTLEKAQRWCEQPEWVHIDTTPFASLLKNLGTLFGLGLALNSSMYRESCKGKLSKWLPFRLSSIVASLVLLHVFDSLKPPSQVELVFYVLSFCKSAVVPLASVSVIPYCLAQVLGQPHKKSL
- experiment notes: Inhibition of glucose-6-phosphatase (unknown origin) using glucose-6-phosphate as substrate assessed as inorganic phosphate production at 100 uM after 30 min
measure: inhibition
The answer consists of two parts: a number and, after it, its unit.

As a guide, the following entries are already answered.
compound	inhibition
CCCCCCCCCCCCCCCCCCC(=O)OCCCCCCCCCCCCCCCCC	8.56%
CCCCCCCCCCCCCCCCCCOCC(O)CO (stereo not given)	4.25%

Tested on Glucose-6-phosphatase catalytic subunit 1 (Homo sapiens): C=C(CCCC(C)C)[C@H]1CCC2C3CC=C4C[C@@H](O)CC[C@]4(C)C3CC[C@@]21C (stereo not given in full) . Observed inhibition: 15.9%

Tested on Glucose-6-phosphatase catalytic subunit 1 (Homo sapiens): CCCCCCCCCCCCCCCCCOC(=O)CCCCCCCCCCCCCCCC . Observed inhibition: 12.7%

Tested on Glucose-6-phosphatase catalytic subunit 1 (Homo sapiens): CCCCCCCCCCCCCCCCCCCCCCO[C@H]1OC[C@H](O[C@H]2OC[C@H](O[C@H]3OC[C@H](O)[C@H](O)[C@H]3O)[C@H](OC(C)=O)[C@H]2O)[C@H](O)[C@H]1O . Observed inhibition: 8.6%
